Value source: ChEMBL document CHEMBL1142312

tested on: CHO; assay: Toxicity in CHO cells; assay type: cell-based, Cricetulus griseus; conditions: cho
property name: IC50 (µM)
Numbers only, in µM.

Req: Please report IC50 with CHO for item `O=[N+]([O-])c1ccc(-[n+]2nc(-c3ccccc3)nn2-c2ccccc2)cc1.[Cl-]` .
Resp: 12

====

Hi there, I'd appreciate the recorded pIC50 for every entry that follows.
assay: Toxicity in CHO cells; type: cell-based, Cricetulus griseus; conditions: Chinese hamster (Cricetulus griseus), CHO cells
One number for each entry, as −log10 of the molar value.

// below: answered compounds
COc1cc(-c2ccc(-n3nc(-c4ccc([N+](=O)[O-])cc4)n[n+]3-c3ccc([N+](=O)[O-])cc3)c(OC)c2)ccc1-n1nc(-c2ccc([N+](=O)[O-])cc2)n[n+]1-c1ccc([N+](=O)[O-])cc1 ... 5.89
Clc1cccc(-c2nn(-c3ccc(OCc4ccccc4)cc3)[n+](-c3ccccc3)n2)c1.[Cl-] ... 4.42
[Cl-].c1ccc(-n2nc(-c3cccc4ccccc34)n[n+]2-c2ccccc2)cc1 ... 5.62
Fc1ccccc1-[n+]1nc(-c2ccc(OCc3ccccc3)cc2)nn1-c1ccccc1.[Cl-] ... 5.10
Fc1cccc(-[n+]2nc(-c3ccc(OCc4ccccc4)cc3)nn2-c2ccccc2)c1.[Cl-] ... 5.37
COc1ccc(-c2nn(-c3ccccc3)[n+](-c3ccc([N+](=O)[O-])cc3)n2)cc1.[Cl-] ... 5.22

Value sought for every listed compound: pIC50.
1. [Cl-].[Cl-].c1ccc(-c2nn(-c3ccccc3)[n+](-c3ccc(-c4ccc(-[n+]5nc(-c6ccccc6)nn5-c5ccccc5)cc4)cc3)n2)cc1 [NEOTETRAZOLIUM CHLORIDE]
2. [Cl-].c1ccc(-c2ccc(-n3nc(-c4cccc5ccccc45)n[n+]3-c3ccccc3)cc2)cc1
3. COc1cc(-c2nn(-c3ccccc3)[n+](-c3ccc(Cl)cc3)n2)ccc1OCc1ccccc1.[Cl-]
4. COc1ccc(-n2nc(-c3ccccc3)n[n+]2-c2ccccc2)cc1.[Cl-]
5. Clc1cccc(-[n+]2nc(-c3ccc(-c4ccccc4)cc3)nn2-c2ccccc2)c1.[Cl-]

Resp:
[4.96, 5.05, 4.49, 5.19, 5.00]

====

Hi there, I'd appreciate the recorded pIC50 for every entry that follows.
experiment: Toxicity in CHO cells; type: cell-based, Cricetulus griseus; conditions: Chinese hamster (Cricetulus griseus), CHO cells
Answers are plain numbers, as −log10 of the molar value.

// below: answered compounds
Fc1ccccc1-[n+]1nc(-c2ccccc2)nn1-c1ccccc1.[Cl-] ... 4.36
COc1ccc(-n2nc(-c3ccc(OCc4ccccc4)cc3)n[n+]2-c2cccc(Cl)c2)cc1.[Cl-] ... 4.80
[Cl-].c1ccc(-c2ccc(-c3nn(-c4ccccc4)[n+](-c4ccccc4)n3)cc2)cc1 ... 5.15
COc1cc(-c2nn(-c3ccccc3)[n+](-c3ccccc3)n2)ccc1OCc1ccccc1.[Cl-] ... 5.33
COc1ccc(-n2nc(-c3ccc(-c4ccccc4)cc3)n[n+]2-c2ccc(Cl)cc2)cc1.[Cl-] ... 4.92

Value sought for every listed compound: pIC50.
1. Fc1ccc(-[n+]2nc(-c3ccc(-c4ccccc4)cc3)nn2-c2ccccc2)cc1.[Cl-]
2. Clc1ccc(-[n+]2nc(-c3ccc(-c4ccccc4)cc3)nn2-c2ccccc2)cc1.[Cl-]
3. O=[N+]([O-])c1ccc(-n2nc(-c3ccccc3)n[n+]2-c2ccc(I)cc2)cc1.[Cl-] [IODONITROTETRAZOLIUM CHLORIDE]
4. CCCCCCCCCCCOc1ccc(-c2nn(-c3ccccc3)[n+](-c3ccccc3)n2)cc1.[Cl-]
5. [Cl-].c1ccc(COc2ccc(-n3nc(-c4ccc(-c5ccccc5)cc4)n[n+]3-c3ccccc3)cc2)cc1

Resp:
5.39
4.80
4.31
6.40
5.77

Value sought for every listed compound: pIC50.
1. Fc1ccc(-[n+]2nc(-c3ccccc3)nn2-c2ccccc2)cc1.[Cl-]
2. COc1cc(-c2nn(-c3ccccc3)[n+](-c3cccc(F)c3)n2)ccc1OCc1ccccc1.[Cl-]
3. Fc1ccc(-[n+]2nc(-c3cccc4ccccc34)nn2-c2ccccc2)cc1.[Cl-]
4. Fc1cccc(-[n+]2nc(-c3ccccc3)nn2-c2ccccc2)c1.[Cl-]
5. [Cl-].c1ccc(COc2ccc(-c3nn(-c4ccc(OCc5ccccc5)cc4)[n+](-c4ccccc4)n3)cc2)cc1

Resp:
1: 4.41; 2: 5.19; 3: 4.49; 4: 4.44; 5: 6.02

Value sought for every listed compound: pIC50.
1. COc1ccc(-n2nc(-c3ccc(-c4ccccc4)cc3)n[n+]2-c2ccc(F)cc2)cc1.[Cl-]
2. CCCCCCCCCCCOc1cccc(-c2nn(-c3ccccc3)[n+](-c3ccccc3)n2)c1.[Cl-]
3. COc1ccc(-n2nc(-c3ccc(OCc4ccccc4)cc3)n[n+]2-c2ccccc2)cc1.[Cl-]
4. Clc1ccc(-[n+]2nc(-c3ccccc3)nn2-c2ccccc2)cc1.[Cl-]
5. COc1cc(-c2nn(-c3ccccc3)[n+](-c3cccc(Cl)c3)n2)ccc1OCc1ccccc1.[Cl-]

Resp:
[4.72, 5.30, 5.05, 4.41, 5.10]

Value sought for every listed compound: pIC50.
1. Brc1cccc(-[n+]2nc(-c3ccccc3)nn2-c2ccccc2)c1.[Cl-]
2. Fc1ccccc1-[n+]1nc(-c2ccc(-c3ccccc3)cc2)nn1-c1ccccc1.[Cl-]

Resp:
1: 5.19; 2: 5.10
